Molecular target: DDR2 (Homo sapiens (Human))
Sequence (Q16832 22-855): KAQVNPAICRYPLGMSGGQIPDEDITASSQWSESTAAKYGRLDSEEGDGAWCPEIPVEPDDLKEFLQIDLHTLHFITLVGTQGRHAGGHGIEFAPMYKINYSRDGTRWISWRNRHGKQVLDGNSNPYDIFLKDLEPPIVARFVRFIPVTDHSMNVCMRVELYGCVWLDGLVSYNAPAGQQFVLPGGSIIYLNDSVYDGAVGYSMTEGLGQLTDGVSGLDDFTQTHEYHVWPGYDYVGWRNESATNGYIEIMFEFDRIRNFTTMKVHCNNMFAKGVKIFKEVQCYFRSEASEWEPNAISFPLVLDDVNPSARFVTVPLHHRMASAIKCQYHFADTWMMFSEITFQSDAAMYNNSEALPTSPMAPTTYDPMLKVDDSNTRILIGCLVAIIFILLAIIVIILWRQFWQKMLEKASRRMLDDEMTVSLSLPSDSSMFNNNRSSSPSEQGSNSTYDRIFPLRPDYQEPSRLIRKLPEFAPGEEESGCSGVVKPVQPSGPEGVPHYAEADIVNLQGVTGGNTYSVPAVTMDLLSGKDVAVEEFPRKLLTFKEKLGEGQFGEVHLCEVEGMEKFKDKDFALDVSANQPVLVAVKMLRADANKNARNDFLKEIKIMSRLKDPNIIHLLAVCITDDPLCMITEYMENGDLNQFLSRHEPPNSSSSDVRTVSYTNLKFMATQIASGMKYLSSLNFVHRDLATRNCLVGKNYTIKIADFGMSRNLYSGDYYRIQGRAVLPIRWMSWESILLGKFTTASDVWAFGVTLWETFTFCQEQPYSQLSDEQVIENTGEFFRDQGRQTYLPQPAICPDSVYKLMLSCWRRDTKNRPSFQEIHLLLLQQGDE
Assay: DDR2 LanthaScreen Europium Kinase Binding assay
Conditions: binding; 5 nM DDR2, 10 nM Kinase Tracer 178, 1 hour at rt; Ki from IC50 by Cheng-Prusoff; read-out: Ki DDR2
pKi: −log10 of the molar value.
Listing of recorded pKi by entry.
reported-property: pKi

[
  {
    "compound": "Cc1ccc(C(=O)Nc2cccc(C(F)(F)F)c2)cc1[C@@H]1CCN(c2cncc(C(=O)NCCN(C)C)c2)C1",
    "reported-measurement": "> 8.00"
  },
  {
    "compound": "Cc1ccc(C(=O)Nc2cccc(C(F)(F)F)c2)cc1C1CCN(c2cncc(OCCN(C)C)c2)C1 (stereo not drawn)",
    "reported-measurement": "> 8.00"
  },
  {
    "compound": "Cc1ccc(C(=O)Nc2cccc(C(F)(F)F)c2)cc1C1CCN(c2ccnc(C#N)c2)C1 (stereo not drawn)",
    "reported-measurement": "< 7.22"
  },
  {
    "compound": "COCCn1cc(Nc2ccc(N3CC[C@@H](c4cc(C(=O)Nc5cccc(C(F)(F)F)c5)ccc4C)C3)cn2)cn1",
    "reported-measurement": "7.22 to 7.60"
  },
  {
    "compound": "Cc1ccc(C(=O)Nc2cccc(C(F)(F)F)c2)cc1[C@@H]1CCN(c2ccc(N)nc2)C1",
    "reported-measurement": "7.22 to 7.60"
  },
  {
    "compound": "CC(=O)Nc1cncc(N2CC[C@@H](c3cc(C(=O)Nc4cccc(C(F)(F)F)c4)ccc3C)C2)c1",
    "reported-measurement": "> 8.00"
  },
  {
    "compound": "Cc1ccc(C(=O)Nc2cccc(C(F)(F)F)c2)cc1C1CCN(c2ccnc(C(N)=O)c2)C1 (single isomer, unassigned) [Example 54]",
    "reported-measurement": "> 8.00"
  },
  {
    "compound": "Cc1ccc(C(=O)Nc2cccc(C(F)(F)F)c2)cc1C1CCN(c2cncc(C(=O)NCCN(C)C)c2)C1 (stereo not drawn)",
    "reported-measurement": "> 8.00"
  },
  {
    "compound": "Cc1ccc(C(=O)Nc2cccc(C(F)(F)F)c2)cc1[C@@H]1CCN(c2cncc(N3CCC(F)(F)CC3)c2)C1",
    "reported-measurement": "< 7.22"
  },
  {
    "compound": "CNC(=O)c1cncc(N2CC[C@H](c3cc(C(=O)Nc4cccc(C(F)(F)F)c4)ccc3C)C2)c1",
    "reported-measurement": "7.60 to 8.00"
  },
  {
    "compound": "Cc1ccc(C(=O)Nc2cccc(C(F)(F)F)c2)cc1[C@@H]1CCN(c2cncc(N3CCC4(COC4)C3)c2)C1",
    "reported-measurement": "< 7.22"
  },
  {
    "compound": "CNC(=O)c1cncc(N2CCC(c3cc(C(=O)Nc4cccc(C(F)(F)F)c4)ccc3C)C2)c1 (stereo not drawn)",
    "reported-measurement": "7.60 to 8.00"
  },
  {
    "compound": "Cc1ccc(C(=O)Nc2cccc(C(F)(F)F)c2)cc1C1CCN(c2cccnc2)C1 (stereo not drawn)",
    "reported-measurement": "> 8.00"
  },
  {
    "compound": "Cc1ccc(C(=O)Nc2cccc(C(F)(F)F)c2)cc1C1CCN(c2cncc(OCCN3CCOCC3)c2)C1 (stereo not drawn)",
    "reported-measurement": "7.22 to 7.60"
  },
  {
    "compound": "COCCOc1cncc(N2CC[C@@H](c3cc(C(=O)Nc4cccc(C(F)(F)F)c4)ccc3C)C2)c1",
    "reported-measurement": "7.60 to 8.00"
  }
]
